Every entry's value here was drawn from patent US20240009651A1.

For each entry below, report its Ave. FB(%) (bound fraction) value.
tested on: Human plasma; assay: in vitro; details: human, 1 h, 100 ng/mL
State the value with its unit after it.

Answer with the recorded Ave. FB(%) (bound fraction) of NC(=O)N1c2ccccc2C=Cc2ccccc21 [Carbamazepine] only.
76.4%

Answer with the recorded Ave. FB(%) (bound fraction) of C[C@]12C=CC(=O)C=C1CC[C@@H]1[C@@H]2[C@@H](O)C[C@@]2(C)[C@H]1CC[C@]2(O)C(=O)CO [prednisolone] only.
78.2%

Answer with the recorded Ave. FB(%) (bound fraction) of CC[C@H]1OC(=O)[C@H](C)[C@@H](O[C@H]2C[C@@](C)(OC)[C@@H](O)[C@H](C)O2)[C@H](C)[C@@H](O[C@@H]2O[C@H](C)C[C@H](N(C)C)[C@H]2O)[C@](C)(O)C[C@@H](C)C(=O)[C@H](C)[C@@H](O)[C@]1(C)O [Erythromycin] only.
81.8%

Answer with the recorded Ave. FB(%) (bound fraction) of CC(C)NCC(O)COc1cccc2ccccc12 (stereo not shown) [Propranolol] only.
90.5%
